Molecular target: T1, integrin αVβ5 (UniProt P06756 31-992; P18084 24-719)
T1 construct: Coated on the ELISA plate
T1 sequence (P06756 31-992, chain 1 of 2): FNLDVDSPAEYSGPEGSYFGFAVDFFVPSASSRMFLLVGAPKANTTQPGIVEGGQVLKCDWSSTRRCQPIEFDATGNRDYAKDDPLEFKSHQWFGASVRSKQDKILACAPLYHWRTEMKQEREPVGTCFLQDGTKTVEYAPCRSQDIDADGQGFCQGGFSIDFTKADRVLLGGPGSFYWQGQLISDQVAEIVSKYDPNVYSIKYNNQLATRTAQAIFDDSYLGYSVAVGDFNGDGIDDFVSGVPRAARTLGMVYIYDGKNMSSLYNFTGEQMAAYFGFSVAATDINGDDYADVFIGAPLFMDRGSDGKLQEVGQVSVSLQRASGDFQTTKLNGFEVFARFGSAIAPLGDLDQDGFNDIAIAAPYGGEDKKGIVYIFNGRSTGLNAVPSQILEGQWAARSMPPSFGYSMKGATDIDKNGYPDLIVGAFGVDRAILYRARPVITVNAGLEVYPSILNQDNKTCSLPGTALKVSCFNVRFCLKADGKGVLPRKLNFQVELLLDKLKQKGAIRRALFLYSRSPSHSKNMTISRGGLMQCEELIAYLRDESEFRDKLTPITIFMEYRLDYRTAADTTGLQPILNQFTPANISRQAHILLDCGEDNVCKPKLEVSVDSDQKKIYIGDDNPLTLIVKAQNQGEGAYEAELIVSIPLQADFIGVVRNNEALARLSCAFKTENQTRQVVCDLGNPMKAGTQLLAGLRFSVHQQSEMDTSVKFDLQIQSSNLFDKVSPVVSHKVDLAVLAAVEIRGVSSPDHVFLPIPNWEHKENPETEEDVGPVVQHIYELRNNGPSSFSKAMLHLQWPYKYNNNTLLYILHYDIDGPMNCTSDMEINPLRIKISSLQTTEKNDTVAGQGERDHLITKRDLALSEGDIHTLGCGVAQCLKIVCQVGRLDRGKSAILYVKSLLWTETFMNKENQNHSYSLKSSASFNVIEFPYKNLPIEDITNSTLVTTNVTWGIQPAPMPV
T1 sequence (P18084 24-719, chain 2 of 2): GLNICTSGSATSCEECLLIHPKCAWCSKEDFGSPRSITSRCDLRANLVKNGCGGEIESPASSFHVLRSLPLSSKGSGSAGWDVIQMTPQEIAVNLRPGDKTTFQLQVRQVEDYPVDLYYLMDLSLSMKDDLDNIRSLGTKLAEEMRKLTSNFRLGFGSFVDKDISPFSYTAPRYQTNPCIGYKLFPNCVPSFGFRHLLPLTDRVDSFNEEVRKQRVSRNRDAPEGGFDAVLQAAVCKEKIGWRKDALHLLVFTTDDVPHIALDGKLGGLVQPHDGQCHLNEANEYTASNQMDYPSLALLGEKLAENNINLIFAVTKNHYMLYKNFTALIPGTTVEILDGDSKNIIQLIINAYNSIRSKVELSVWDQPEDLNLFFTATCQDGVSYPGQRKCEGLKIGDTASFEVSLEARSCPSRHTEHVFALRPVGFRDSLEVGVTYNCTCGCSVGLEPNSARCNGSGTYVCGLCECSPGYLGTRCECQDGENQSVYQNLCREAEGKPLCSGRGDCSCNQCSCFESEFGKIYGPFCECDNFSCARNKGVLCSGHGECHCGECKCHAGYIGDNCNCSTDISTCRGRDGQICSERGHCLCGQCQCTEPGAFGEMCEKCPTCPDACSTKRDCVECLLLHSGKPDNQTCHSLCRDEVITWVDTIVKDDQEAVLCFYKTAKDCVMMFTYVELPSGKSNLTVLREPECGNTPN
Assay: phage ELISA, integrin coated, anti-M13-HRP
For each record, write down the corresponding signal.

Which measured signal value corresponds to M13 phage pKK111 displaying MICA α3 domain with tight T-5.3 in loop 1 (designed binder, not shown: large carriers) TVPPMVNHLARGDDLTYCRASGFYPWNITLSWRQDGVSLSHDTQQWGDVLPDGNGTYQTWVATRICQGEEQRFTCYMEHSGNHSTHPVPSGK ?
0.657 OD

Quick one: signal of M13 phage pKK110 displaying MICA α3 domain with tight T-5.1 in loop 1 (designed binder, not shown: large carriers) TVPPMVNVTRGDTFTQSCRASGFYPWNITLSWRQDGVSLSHDTQQWGDVLPDGNGTYQTWVATRICQGEEQRFTCYMEHSGNHSTHPVPSGK ?
2.56 OD

Value source: patent EP2658867B1
